System: Human B Lymphocyte cell line, SU-DHL-8
ASSAY: Relative cell viability CCK-8, SU-DHL-8
Type: cell-based
STUDY CONDITIONS: 50 μM; 48 hours; untreated (DMSO) = 100%
In this section we review reported Relative cell viability (%), SU-DHL-8 values for a set of compounds.
READOUT TYPE: Relative cell viability (%), SU-DHL-8

- COMPOUND: "Cc1ccc(C2CCN(CCCCCCCCCCCCNC(=O)c3cccnc3N)CC2)cc1 [Compound 55]"
  TEST SYSTEM: "Human B Lymphocyte cell line, SU-DHL-8"
  ENDPOINT VALUE: 0.97
- COMPOUND: "Nc1ncccc1C(=O)NCCCCCCCCCCCCN1CC(F)(F)C1 [Compound 122]"
  TEST SYSTEM: "Human B Lymphocyte cell line, SU-DHL-8"
  ENDPOINT VALUE: 35.70
- COMPOUND: "CC1(C)CN(CCCCCCCCCCCCC(=O)Nc2nc(N)c3[nH]cnc3n2)CCO1 [Compound 11]"
  TEST SYSTEM: "Human B Lymphocyte cell line, SU-DHL-8"
  ENDPOINT VALUE: 3.29
- COMPOUND: "Cl.O=C(NCCCCCCCCCCCCN1CCNCC1)c1ccc(-c2ccccc2)o1 [Compound 90]"
  TEST SYSTEM: "Human B Lymphocyte cell line, SU-DHL-8"
  ENDPOINT VALUE: 1.94
- COMPOUND: "Cl.Nc1ncccc1C(=O)NCCCCCCCCCCCCN1CC[C@H](N)C1 [Compound 50]"
  TEST SYSTEM: "Human B Lymphocyte cell line, SU-DHL-8"
  ENDPOINT VALUE: 4.31
- COMPOUND: "Nc1ncccc1C(=O)NCCCCCCCCCCCCF [Compound 57]"
  TEST SYSTEM: "Human B Lymphocyte cell line, SU-DHL-8"
  ENDPOINT VALUE: 11.94
- COMPOUND: "CC1CN(C)C(CCCCCCCCCCCCNc2ccc3cncnc3n2)N1 (stereo not drawn) [Compound 43]"
  TEST SYSTEM: "Human B Lymphocyte cell line, SU-DHL-8"
  ENDPOINT VALUE: 1.58
- COMPOUND: "Nc1ncccc1C(=O)NCCCCCCCCCCCCN1CCS(=O)(=O)CC1 [Compound 25]"
  TEST SYSTEM: "Human B Lymphocyte cell line, SU-DHL-8"
  ENDPOINT VALUE: 0.95
- COMPOUND: "CC(C)(C)OC(=O)N[C@H]1CCN(CCCCCCCCCCCCNC(=O)c2cccnc2N)C1 [Compound 49]"
  TEST SYSTEM: "Human B Lymphocyte cell line, SU-DHL-8"
  ENDPOINT VALUE: 4.09
